Every entry's value here was drawn from ChEMBL document CHEMBL1156754.

# target-desc: P2Y purinoceptor 6 (Homo sapiens)
# Sequence (Q15077 whole entry): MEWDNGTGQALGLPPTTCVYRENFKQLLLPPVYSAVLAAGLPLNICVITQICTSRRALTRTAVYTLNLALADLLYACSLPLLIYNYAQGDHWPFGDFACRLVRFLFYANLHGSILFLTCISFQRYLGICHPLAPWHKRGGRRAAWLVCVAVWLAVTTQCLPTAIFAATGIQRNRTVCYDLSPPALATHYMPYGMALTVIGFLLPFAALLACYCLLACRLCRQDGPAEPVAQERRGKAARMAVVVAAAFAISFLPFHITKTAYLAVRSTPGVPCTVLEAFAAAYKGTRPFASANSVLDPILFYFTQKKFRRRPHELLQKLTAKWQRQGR
# method-summary: Agonist activity at human P2Y6 receptor expressed in human 1321N1 cells coexpressing phospholipase C-activating Gq protein assessed as [3H]inositol phosphate production
# Assay type: functional, cell-based
# study-conditions: read-out: EC50
measure-name: EC50 (µM)
State just the number; it will be interpreted in µM.

(Q) What does the record list as EC50 for O=c1ccn([C@@H]2O[C@H](COP(=O)(O)OP(=O)(O)O)[C@@H](O)[C@H]2O)c(=S)[nH]1 ?
(A) 0.447

(Q) Same read-out for O=c1ccn([C@@H]2O[C@H](COP(=O)(O)CP(=O)(O)O)[C@@H](O)[C@H]2O)c(=O)[nH]1 ?
(A) 0.339

(Q) Same read-out for O=c1ccn([C@@H]2O[C@H](COP(=O)(O)OP(=O)(O)O)[C@@H](O)[C@H]2O)c(=O)[nH]1 [URIDINE_DIPHOSPHATE] ?
(A) 0.53

(Q) Same read-out for O=c1ccn([C@@]23C[C@H]2[C@H](COP(=O)(O)OP(=O)(O)O)[C@@H](O)[C@H]3O)c(=O)[nH]1 ?
(A) 0.042

(Q) Same read-out for O=c1[nH]c(=S)ccn1[C@@H]1O[C@H](COP(=O)(O)OP(=O)(O)O)[C@@H](O)[C@H]1O ?
(A) 2.36

(Q) Same read-out for O=c1ccn([C@@H]2O[C@H](COP(=O)(O)CP(=O)(O)O)[C@@H](O)[C@H]2O)c(=S)[nH]1 ?
(A) 1.99

(Q) Same read-out for O=c1ccn([C@@H]2O[C@H](COP(=O)(O)OP(=O)(O)Oc3cccc(Cl)c3)[C@@H](O)[C@H]2O)c(=O)[nH]1 ?
(A) 7.37

(Q) Same read-out for CO/N=c1/ccn([C@@H]2O[C@H](COP(=O)(O)OP(=O)(O)O)[C@@H](O)[C@H]2O)c(=O)[nH]1 ?
(A) 0.07

(Q) Same read-out for O=c1ccn([C@@H]2O[C@H](COP(=O)(O)OP(=O)(O)Oc3ccc([N+](=O)[O-])cc3)[C@@H](O)[C@H]2O)c(=O)[nH]1 ?
(A) 2.76

(Q) Same read-out for CC(C)(C)OP(=O)(O)OP(=O)(O)OC[C@H]1O[C@@H](n2ccc(=O)[nH]c2=S)[C@H](O)[C@@H]1O ?
(A) 2.04

(Q) Same read-out for O=c1[nH]c(=O)n([C@@H]2O[C@H](COP(=O)(O)C(F)(F)P(=O)(O)O)[C@@H](O)[C@H]2O)cc1I ?
(A) 0.127

(Q) Same read-out for CCCOP(=O)(O)OP(=O)(O)OC[C@H]1O[C@@H](n2ccc(=O)[nH]c2=S)[C@H](O)[C@@H]1O ?
(A) 9.1

(Q) Same read-out for C#CCCOP(=O)(O)OP(=O)(O)OC[C@H]1O[C@@H](n2ccc(=O)[nH]c2=O)[C@H](O)[C@@H]1O ?
(A) 1.52

(Q) Same read-out for CCN(CC)CC.COP(=O)(O)OP(=O)(O)OC[C@H]1O[C@@H](n2ccc(=S)[nH]c2=O)[C@H](O)[C@@H]1O ?
(A) 10.4

(Q) Same read-out for O=c1ccn([C@@H]2O[C@H](COP(=O)(O)OP(=O)(O)Oc3ccccc3)[C@@H](O)[C@H]2O)c(=O)[nH]1 ?
(A) 7.4
